Test system: RAW264.7
experimental.details: Cytotoxicity against mouse RAW264.7 cells assessed as effect on cell viability at 5 uM incubated for 24 hrs by alamar blue reagent based fluorescence assay
Format: toxicity
test.settings: raw264.7, 24 h
parameter.measured: Activity

compound	parameter.measured	result
COc1cc(CC[C@@H](O)CC/C=C/c2ccccc2)ccc1O	Activity	Non-Toxic
Oc1ccc(CC[C@@H](O)CCCCc2ccccc2)cc1O	Activity	Non-Toxic
O[C@@H](CC/C=C/c1ccccc1)CCc1ccc(OCc2ccccc2)cc1	Activity	Non-Toxic
O=C(CCCCc1ccccc1)CCc1ccccc1	Activity	Non-Toxic
Oc1ccc(CC[C@@H](O)CC/C=C/c2ccccc2)cc1O	Activity	Non-Toxic
OC(CCc1ccccc1)CC(O)CCc1ccccc1 (configuration not stated)	Activity	Non-Toxic
CC(=O)Oc1ccc(CC[C@H](CCCCc2ccccc2)OC(C)=O)cc1OC(C)=O	Activity	Non-Toxic
COc1ccc(OC)c(CCCCC(=O)CCc2ccc(OC)c(O)c2)c1	Activity	Non-Toxic

Value sought: Activity, system RAW264.7, item `Oc1ccc(CC[C@@H](O)CC/C=C/c2ccccc2)cc1` . Result: Non-Toxic

Entry `C(=C\C=C\c1ccccc1)/C=C/Cc1ccccc1` , tested on RAW264.7, has a reported Activity of Non-Toxic

Lab note: compound `O[C@@H](CCCCc1ccccc1)CCc1ccccc1` tested on RAW264.7; recorded Activity was Non-Toxic

Let me check: COc1ccc(CCCCC(O)CCc2ccc(OC)c(O)c2)c(OC)c1 (configuration not stated) , system RAW264.7, measured Activity is Non-Toxic
